Measured MIC wt on C. pseudotuberculosis wild-type follows.
reported.endpoint: MIC wt (µg/mL)

{"compound": "O=C(N[C@H](CO)[C@H](O)c1ccc([N+](=O)[O-])cc1)C(Cl)Cl [Chloramphenicol]", "subject.of.test": "C. pseudotuberculosis wild-type", "recorded.value": 10}
{"compound": "CO/N=C(\\C(=O)N[C@@H]1C(=O)N2C(C(=O)O)=C(CSc3nc(=O)c(=O)[nH]n3C)CS[C@H]12)c1csc(N)n1 [Ceftriaxone]", "subject.of.test": "C. pseudotuberculosis wild-type", "recorded.value": 0.625}
{"compound": "CN(C)[C@@H]1C(O)=C(C(N)=O)C(=O)[C@@]2(O)C(O)=C3C(=O)c4c(O)cccc4[C@@](C)(O)[C@H]3[C@H](O)[C@@H]12 [Oxytetracycline]", "subject.of.test": "C. pseudotuberculosis wild-type", "recorded.value": 0.625}
{"compound": "CC[C@H]1OC(=O)[C@H](C)[C@@H](O[C@H]2C[C@@](C)(OC)[C@@H](O)[C@H](C)O2)[C@H](C)[C@@H](O[C@@H]2O[C@H](C)C[C@H](N(C)C)[C@H]2O)[C@](C)(O)C[C@@H](C)C(=O)[C@H](C)[C@@H](O)[C@]1(C)O [Erythromycin]", "subject.of.test": "C. pseudotuberculosis wild-type", "recorded.value": 0.156}
{"compound": "Cc1onc(-c2ccccc2)c1C(=O)N[C@@H]1C(=O)N2[C@@H]1SC(C)(C)[C@@H]2C(=O)O [Oxacillin]", "subject.of.test": "C. pseudotuberculosis wild-type", "recorded.value": 2.5}
{"compound": "CN[C@@H]1[C@H](O)[C@H](NC)[C@H]2O[C@@]3(O)C(=O)C[C@@H](C)O[C@H]3O[C@@H]2[C@H]1O [Spectinomycin]", "subject.of.test": "C. pseudotuberculosis wild-type", "recorded.value": 2.5}
